test.summary: Hydrodynamic radius of micelles by dynamic light scattering (DLS)
Type: physicochemical
test.settings: at 1.0 wt %
value.kind: Rh (nm), hydrodynamic radius of micelles
Supply the numeric figure in nm, leaving out any unit text.

Form field: reported Rh (nm), hydrodynamic radius of micelles of Cc1c(C)c2c(c(C)c1OCCC(CO[C@@H]1OC(CO)[C@@H](O[C@H]3OC(CO)[C@@H](O)[C@H](O)C3O)[C@H](O)C1O)CO[C@@H]1OC(CO)[C@@H](O[C@H]3OC(CO)[C@@H](O)[C@H](O)C3O)[C@H](O)C1O)CCC(C)(CCCC(C)CCCC(C)CCCC(C)C)O2 (stereo partly drawn)
5.1

Form field: reported Rh (nm), hydrodynamic radius of micelles of Cc1c(C)c2c(c(C)c1O[C@@H]1OC(CO[C@@H]3OC(CO)[C@@H](O)[C@H](O)C3O)[C@@H](O[C@@H]3OC(CO)[C@@H](O)[C@H](O)C3O)[C@H](O[C@@H]3OC(CO)[C@@H](O)[C@H](O)C3O)C1O[C@@H]1OC(CO)[C@@H](O)[C@H](O)C1O)CCC(C)(CCCC(C)CCCC(C)CCCC(C)C)O2 (stereo partly drawn)
3.9

Form field: reported Rh (nm), hydrodynamic radius of micelles of Cc1c(C)c2c(c(C)c1OCCOCC(CO[C@@H]1OC(CO)[C@@H](O)[C@H](O)C1O)(CO[C@@H]1OC(CO)[C@@H](O)[C@H](O)C1O)CO[C@@H]1OC(CO)[C@@H](O)[C@H](O)C1O)CCC(C)(CCCC(C)CCCC(C)CCCC(C)C)O2 (stereo partly drawn)
4.7

Form field: reported Rh (nm), hydrodynamic radius of micelles of Cc1c(C)c2c(c(C)c1OCC(CO[C@@H]1OC(CO)[C@@H](O)[C@H](O)C1O)(CO[C@@H]1OC(CO)[C@@H](O)[C@H](O)C1O)CO[C@@H]1OC(CO)[C@@H](O)[C@H](O)C1O)CCC(C)(CCCC(C)CCCC(C)CCCC(C)C)O2 (stereo partly drawn)
4.2

Form field: reported Rh (nm), hydrodynamic radius of micelles of CCCCCCCCCCCCO[C@@H]1O[C@H](CO)[C@@H](O[C@H]2O[C@H](CO)[C@@H](O)[C@H](O)[C@H]2O)[C@H](O)[C@H]1O [DDM, n-dodecyl-β-D-maltopyranoside, reference compound]
3.4

Form field: reported Rh (nm), hydrodynamic radius of micelles of Cc1c(C)c2c(c(C)c1OCC(=O)NC(CO[C@@H]1OC(CO)[C@@H](O[C@H]3OC(CO)[C@@H](O)[C@H](O)C3O)[C@H](O)C1O)CO[C@@H]1OC(CO)[C@@H](O[C@H]3OC(CO)[C@@H](O)[C@H](O)C3O)[C@H](O)C1O)CCC(C)(CCCC(C)CCCC(C)CCCC(C)C)O2 (stereo partly drawn)
4.8

----------
assay.target: UapA (Emericella nidulans, UniProt Q07307, G411V)
Sequence (Q07307 12-574 G411V): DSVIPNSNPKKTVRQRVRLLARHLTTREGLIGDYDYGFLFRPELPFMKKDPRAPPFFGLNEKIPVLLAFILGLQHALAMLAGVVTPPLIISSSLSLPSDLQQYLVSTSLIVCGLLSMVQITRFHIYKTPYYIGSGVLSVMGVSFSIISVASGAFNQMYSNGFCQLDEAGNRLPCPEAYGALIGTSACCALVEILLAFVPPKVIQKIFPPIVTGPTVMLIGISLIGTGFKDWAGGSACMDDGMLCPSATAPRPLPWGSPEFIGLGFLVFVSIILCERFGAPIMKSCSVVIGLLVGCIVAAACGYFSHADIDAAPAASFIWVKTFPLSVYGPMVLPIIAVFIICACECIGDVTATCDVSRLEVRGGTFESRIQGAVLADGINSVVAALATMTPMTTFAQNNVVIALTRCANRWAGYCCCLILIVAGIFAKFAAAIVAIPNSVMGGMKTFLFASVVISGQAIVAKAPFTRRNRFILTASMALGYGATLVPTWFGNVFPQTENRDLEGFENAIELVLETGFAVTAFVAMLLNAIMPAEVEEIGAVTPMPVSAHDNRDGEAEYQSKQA
test.summary: UapA extraction and thermal stability by fluorescence size exclusion chromatography (FSEC)
Design: made in house
test.settings: 45° C. for 10 minutes
value.kind: UapA integrity after thermal treatment (FSEC)

compound | recorded.result
CCCCCCCCCCCCO[C@@H]1O[C@H](CO)[C@@H](O[C@H]2O[C@H](CO)[C@@H](O)[C@H](O)[C@H]2O)[C@H](O)[C@H]1O [DDM, n-dodecyl-β-D-maltopyranoside, reference compound] | considerably degraded
CCCCCCCCCCC(CCCCCCCCCC)(CO[C@@H]1O[C@H](CO)[C@@H](O[C@H]2O[C@H](CO)[C@@H](O)[C@H](O)[C@H]2O)[C@H](O)[C@H]1O)CO[C@@H]1O[C@H](CO)[C@@H](O[C@H]2O[C@H](CO)[C@@H](O)[C@H](O)[C@H]2O)[C@H](O)[C@H]1O [LMNG, reference compound] | considerably degraded

----------
test.summary: Critical micelle concentration by hydrophobic fluorescence staining with diphenylhexatriene (DPH)
Assay type: physicochemical
test.settings: aqueous solution
value.kind: CMC (wt %)

Form field: reported CMC (wt %) of CCCCCCCCCCCCO[C@@H]1O[C@H](CO)[C@@H](O[C@H]2O[C@H](CO)[C@@H](O)[C@H](O)[C@H]2O)[C@H](O)[C@H]1O [DDM, n-dodecyl-β-D-maltopyranoside, reference compound]
0.0087 wt %

Form field: reported CMC (wt %) of Cc1c(C)c2c(c(C)c1OCCOCC(CO[C@@H]1OC(CO)[C@@H](O)[C@H](O)C1O)(CO[C@@H]1OC(CO)[C@@H](O)[C@H](O)C1O)CO[C@@H]1OC(CO)[C@@H](O)[C@H](O)C1O)CCC(C)(CCCC(C)CCCC(C)CCCC(C)C)O2 (stereo partly drawn)
~0.0003 wt %

Form field: reported CMC (wt %) of Cc1c(C)c2c(c(C)c1OCC(CO[C@@H]1OC(CO)[C@@H](O)[C@H](O)C1O)(CO[C@@H]1OC(CO)[C@@H](O)[C@H](O)C1O)CO[C@@H]1OC(CO)[C@@H](O)[C@H](O)C1O)CCC(C)(CCCC(C)CCCC(C)CCCC(C)C)O2 (stereo partly drawn)
~0.0002 wt %

Form field: reported CMC (wt %) of Cc1c(C)c2c(c(C)c1O[C@@H]1OC(CO[C@@H]3OC(CO)[C@@H](O)[C@H](O)C3O)[C@@H](O[C@@H]3OC(CO)[C@@H](O)[C@H](O)C3O)[C@H](O[C@@H]3OC(CO)[C@@H](O)[C@H](O)C3O)C1O[C@@H]1OC(CO)[C@@H](O)[C@H](O)C1O)CCC(C)(CCCC(C)CCCC(C)CCCC(C)C)O2 (stereo partly drawn)
~0.0002 wt %

Form field: reported CMC (wt %) of Cc1c(C)c2c(c(C)c1OCCC(CO[C@@H]1OC(CO)[C@@H](O[C@H]3OC(CO)[C@@H](O)[C@H](O)C3O)[C@H](O)C1O)CO[C@@H]1OC(CO)[C@@H](O[C@H]3OC(CO)[C@@H](O)[C@H](O)C3O)[C@H](O)C1O)CCC(C)(CCCC(C)CCCC(C)CCCC(C)C)O2 (stereo partly drawn)
~0.0003 wt %

Form field: reported CMC (wt %) of Cc1c(C)c2c(c(C)c1OCC(=O)NC(CO[C@@H]1OC(CO)[C@@H](O[C@H]3OC(CO)[C@@H](O)[C@H](O)C3O)[C@H](O)C1O)CO[C@@H]1OC(CO)[C@@H](O[C@H]3OC(CO)[C@@H](O)[C@H](O)C3O)[C@H](O)C1O)CCC(C)(CCCC(C)CCCC(C)CCCC(C)C)O2 (stereo partly drawn)
~0.0002 wt %

----------
test.summary: Critical micelle concentration by hydrophobic fluorescence staining with diphenylhexatriene (DPH)
Assay type: physicochemical
test.settings: aqueous solution
So I've got a bunch of molecules here, and I need their CMC values.

Form field: reported CMC of Cc1c(C)c2c(c(C)c1OCCC(CO[C@@H]1OC(CO)[C@@H](O[C@H]3OC(CO)[C@@H](O)[C@H](O)C3O)[C@H](O)C1O)CO[C@@H]1OC(CO)[C@@H](O[C@H]3OC(CO)[C@@H](O)[C@H](O)C3O)[C@H](O)C1O)CCC(C)(CCCC(C)CCCC(C)CCCC(C)C)O2 (some centres unmarked) [VEG-4]
~0.003 mM

Form field: reported CMC of Cc1c(C)c2c(c(C)c1OCC(=O)NC(CO[C@@H]1OC(CO)[C@@H](O[C@H]3OC(CO)[C@@H](O)[C@H](O)C3O)[C@H](O)C1O)CO[C@@H]1OC(CO)[C@@H](O[C@H]3OC(CO)[C@@H](O)[C@H](O)C3O)[C@H](O)C1O)CCC(C)(CCCC(C)CCCC(C)CCCC(C)C)O2 (some centres unmarked) [VEG-3]
~0.002 mM

Form field: reported CMC of Cc1c(C)c2c(c(C)c1OCC(CO[C@@H]1OC(CO)[C@@H](O)[C@H](O)C1O)(CO[C@@H]1OC(CO)[C@@H](O)[C@H](O)C1O)CO[C@@H]1OC(CO)[C@@H](O)[C@H](O)C1O)CCC(C)(CCCC(C)CCCC(C)CCCC(C)C)O2 (some centres unmarked) [VEG-1]
~0.002 mM

Form field: reported CMC of Cc1c(C)c2c(c(C)c1OCCOCC(CO[C@@H]1OC(CO)[C@@H](O)[C@H](O)C1O)(CO[C@@H]1OC(CO)[C@@H](O)[C@H](O)C1O)CO[C@@H]1OC(CO)[C@@H](O)[C@H](O)C1O)CCC(C)(CCCC(C)CCCC(C)CCCC(C)C)O2 (some centres unmarked) [VEG-2]
~0.003 mM

Form field: reported CMC of Cc1c(C)c2c(c(C)c1O[C@@H]1OC(CO[C@@H]3OC(CO)[C@@H](O)[C@H](O)C3O)[C@@H](O[C@@H]3OC(CO)[C@@H](O)[C@H](O)C3O)[C@H](O[C@@H]3OC(CO)[C@@H](O)[C@H](O)C3O)C1O[C@@H]1OC(CO)[C@@H](O)[C@H](O)C1O)CCC(C)(CCCC(C)CCCC(C)CCCC(C)C)O2 (some centres unmarked) [VEG-5]
~0.002 mM
